Measurement Target: T1, cynomolgus monkey His6-GITR (cynomolgus monkey)
T1 construct: His6-tagged recombinant protein; also called cGITR-His; cyno GITR-His
T1 chain: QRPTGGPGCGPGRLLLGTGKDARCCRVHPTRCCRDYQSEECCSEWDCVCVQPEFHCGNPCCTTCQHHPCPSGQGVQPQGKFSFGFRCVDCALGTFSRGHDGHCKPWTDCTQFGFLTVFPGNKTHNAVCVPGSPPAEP
Experiment Description: ELISA, scFv periplasmic extract on coated His6-GITR

Binder	cGITR-His/BKG
GITR-Mab-9 scFv (scFv, V domains shown, scFv in periplasmic extract, V5 tag) VH: QVQLVQSGAEVKKPGASVKVSCKASGHTFTSQYMHWVRQAPGQGLEWVGVINPNDGSTSYAQKFQGRVTMTRDTSTSTVYMELSSLRSEDTAVYYCARDGAYYYDSSGYYRSSNFDYWGQGTLVTVSS VL: DIQMTQSPSSLSASVGDRVTITCQASQDIGNYLNWYQQKPGKAPKLLIYGASNLETGVPSRFSGSGSGTDFTLTISSLQPEDFATYYCQQGYSFPLTFGQGTKVEIK	11.6 fold over background
GITR-Mab-34 scFv (scFv, V domains shown, scFv in periplasmic extract, V5 tag) VH: EVQLLESGGGLVQPGGSLRLSCAASGFTFSSYWMHWVRQAPGKGLEWVSVISNSGGATYYADSVKGRFTISRDNSKNTLYLQMNSLRAEDTAVYYCAREGWGYGMDVWGQGTTVTVSS VL: DIQMTQSPSSLSASVGDRVTITCRASQDIRNYLAWYQQKPGKAPKLLIYTASTLQSGVPSRFSGSGSGTDFTLTISSLQPEDFATYYCQQTFRTPLTFGGGTKVEIK	1.1 fold over background
GITR-Mab-43 scFv (scFv, V domains shown, scFv in periplasmic extract, V5 tag) VH: QVQLVQSGAEVKKPGASVKVSCKASGYTFTSHDIDWVRQAPGQGLEWMGWMNPNNGNTVYAQRFQGRVTMTRDTSTSTVYMELSSLRSEDTAVYYCARWKVYSGSYYGGAGYFDLWGRGTLVTVSS VL: DIQMTQSPSSLSASVGDRVTITCRASQSISSYLNWYQQKPGKAPKLLIYRASHLEGGVPSRFSGSGSGTDFTLTISSLQPEDFATYYCQQADSLPLTFGQGTKVEIK	12 fold over background
GITR-Mab-23 scFv (scFv, V domains shown, scFv in periplasmic extract, V5 tag) VH: EVQLLESGGGLVQPGGSLRLSCAASGFPFSTYAIHWVRQAPGKGLEWVSAISGSGGSTYYADSVKGRFTISRDNSKNTLYLQMNSLRAEDTAVYYCAGPDWYFDLWGRGTLVTVSS VL: DIQMTQSPSSLSASVGDRVTITCRASQAISNSLAWYQQKPGKAPKLLIYAASTLQRGVPSRFSGSGSGTDFTLTISSLQPEDFATYYCQQYYSTPYTFGQGTKLEIK	23.2 fold over background
GITR-Mab-39 scFv (scFv, V domains shown, scFv in periplasmic extract, V5 tag) VH: EVQLLESGGGLVKPGGSLRLSCAASGFTFSSYWMSWVRQAPGKGLEWVSSISWSSTYIYYADSVKGRFTISRDDSKNTLYLQMNSLKTEDTAVYYCARDGQLGHWHFDLWGRGTLVTVSS VL: DIQMTQSPSSLSASVGDRVTITCRASQSISDWLAWYQQKPGKAPKLLIYEASKLATGVPSRFSGSGSGTDFTLTISSLQPEDFATYYCQQSYTTPLTFGGGTKVEIK	4 fold over background
GITR-Mab-19 scFv (scFv, V domains shown, scFv in periplasmic extract, V5 tag) VH: QVQLVQSGAEVKKPGASVKVSCKASGYTFTSYDINWVRQAPGQGLEWVGIINPSGGSTSYAQKFQGRVTMTRDTSTSTVYMELSSLRSEDTAVYYCARASSGGYYYYYGMDVWGQGTTVTVSS VL: DIQMTQSPSSLSASVGDRVTITCRASQDIVNWLAWYQQKPGKAPKLLIYAASSLQSGVPSRFSGSGSGTDFTLTISSLQPEDFATYYCQQYYSYPLTFGQGTRLEIK	24.6 fold over background
